- Tested on: NCI-H23 lung
- EXPERIMENTAL DETAILS: NCI tumour cell line growth inhibition, 48 h

{"COMPOUND": "Cn1cnc2nc(Cl)nc(NC(C)(C)C(C)(C)O)c21", "MEASURED TARGET": "NCI-H23 lung", "TGI": "> 100 µM"}
{"COMPOUND": "O=C(c1ccccc1)C(CN1CCOCC1)c1ccccc1 (stereo not given)", "MEASURED TARGET": "NCI-H23 lung", "TGI": "12.3 µM"}
{"COMPOUND": "CCOC(=O)/C(C(=S)Nc1ccccc1)=C(/N)N1CCCC1", "MEASURED TARGET": "NCI-H23 lung", "TGI": "> 100 µM"}
{"COMPOUND": "O=S(=O)(c1ccccc1)C(CN1CCCCC1)S(=O)(=O)c1ccccc1", "MEASURED TARGET": "NCI-H23 lung", "TGI": "> 100 µM"}
{"COMPOUND": "O=C1C(=O)c2c(nc3ccc(Cl)cn23)-c2ccccc21", "MEASURED TARGET": "NCI-H23 lung", "TGI": "1.47 µM"}
{"COMPOUND": "COc1ccc([C@@H]2ON(C)[C@H]3CN(C)C(=O)[C@@H]23)cc1", "MEASURED TARGET": "NCI-H23 lung", "TGI": "> 100 µM"}
{"COMPOUND": "CC1=C(N2CC2)C(=O)c2nc3n(c2C1=O)CCC3OC(=O)CCl (stereo not given)", "MEASURED TARGET": "NCI-H23 lung", "TGI": "0.0825 µM"}
{"COMPOUND": "CC1=C(CCC(C)N(C)Cc2ccc(OCCCN3CCCC3)cc2)C(C)(C)CCC1 (stereo not given)", "MEASURED TARGET": "NCI-H23 lung", "TGI": "24.9 µM"}
{"COMPOUND": "CC1CC[C@@H](C(C)C)[C@H](Oc2nnc(C3OC(CO)C(O)C3O)o2)C1 (stereo not given in full)", "MEASURED TARGET": "NCI-H23 lung", "TGI": "> 100 µM"}
{"COMPOUND": "O=C(O[C@H]1[C@@H](O)[C@H](n2cnc3c(Cl)ncnc32)O[C@@H]1COC(c1ccccc1)(c1ccccc1)c1ccccc1)c1ccccc1", "MEASURED TARGET": "NCI-H23 lung", "TGI": "> 100 µM"}
{"COMPOUND": "CC1(C)CC(=O)c2c(nc3ccc4ccccc4c3c2-c2ccc(NC(=O)CCCC(=O)Nc3ccc(-c4c5c(nc6ccc7ccccc7c46)CC(C)(C)CC5=O)cc3)cc2)C1", "MEASURED TARGET": "NCI-H23 lung", "TGI": "> 100 µM"}
{"COMPOUND": "CC(=O)OC1C(O)COC(O[C@H]2CC[C@]34C[C@]35CC[C@]3(C)C([C@@]6(C)CC[C@@H](C(C)(C)O)O6)[C@@H](O)C[C@@]3(C)C5C[C@H](OC3OCC(O)C(O)C3O)[C@H]4C2(C)C)C1OC1OCC(O)C(O)C1O (stereo not given in full)", "MEASURED TARGET": "NCI-H23 lung", "TGI": "> 100 µM"}
{"COMPOUND": "Cc1sc(Cc2ccccc2)nc1-c1ccc(N)cc1", "MEASURED TARGET": "NCI-H23 lung", "TGI": "> 100 µM"}
{"COMPOUND": "CN(C)c1ccc2c(c1)Sc1cc(N(C)C)ccc1N2C(=O)c1ccccc1", "MEASURED TARGET": "NCI-H23 lung", "TGI": "> 100 µM"}
{"COMPOUND": "N/C(=N\\N=C\\c1ccc(-c2ccccc2)cc1)N[N+](=O)[O-]", "MEASURED TARGET": "NCI-H23 lung", "TGI": "> 100 µM"}
{"COMPOUND": "CCOC(=O)C(C)(c1cn(C)c2ccccc12)c1cn(C)c2ccccc12", "MEASURED TARGET": "NCI-H23 lung", "TGI": "> 100 µM"}
{"COMPOUND": "O=C1c2ccccc2-c2c1c1ccc([N+](=O)[O-])cc1c(=O)n2CCCBr", "MEASURED TARGET": "NCI-H23 lung", "TGI": "5.76 µM"}
{"COMPOUND": "COC(=O)C(Cc1ccccc1)NC(=O)NC(=O)NC(=O)CI (stereo not given)", "MEASURED TARGET": "NCI-H23 lung", "TGI": "28.2 µM"}
{"COMPOUND": "Cc1ccccc1N=Nc1ccc(N=Nc2c(O)ccc3ccccc23)c(C)c1", "MEASURED TARGET": "NCI-H23 lung", "TGI": "> 100 µM"}
{"COMPOUND": "CN1CCCCC1CCN1CCCCC1 (stereo not given)", "MEASURED TARGET": "NCI-H23 lung", "TGI": "> 100 µM"}
